- Tested on: SK-MEL-5
- Experiment notes: NCI tumour cell line growth inhibition, 48 h
The source made the active and inactive calls. Rule as the data show it: active = GI50 up to about 1.1 µM and inactive = higher.
Each entry below lists one item and its recorded GI50 value.

Compound	GI50
COc1ccc2nc(NC(=O)C(=O)C(C#N)c3ccc(Cl)c(Cl)c3)sc2c1 (configuration not stated)	> 100 µM (inactive)
CC(=O)/C(=N\O)C(=O)NCCc1ccccc1	> 100 µM (inactive)
CCCCCCCNC(P(=O)(O)O)P(=O)(O)O	97.3 µM (inactive)
COC(O)C(=O)c1ccc2c(c1)CC1(C2)Cc2cc3c(cc2C1=O)CCC3 (configuration not stated)	16 µM (inactive)
CC1(C)S[C@@H]2[C@H](NC(=O)[C@H](N)c3ccccc3)C(=O)N2[C@H]1C(=O)O [AMPICILLIN]	> 100 µM (inactive)
COc1ccc(/C(Cl)=C(\CNc2ccccn2)c2ccccc2)cc1OC	> 100 µM (inactive)
N#Cc1c(O)c(/N=N/c2ccccc2F)c(=O)n2c1[nH]c1ccccc12	42 µM (inactive)
COc1ccc(/C=C/c2cc(OC)c(OC)c(OC)c2)cc1O[Si](C)(C)C(C)(C)C	1.98 µM (inactive)
COC(=O)CC1(CNC(=O)OCc2ccccc2)OCCO1	> 100 µM (inactive)
COc1cc(Nc2nc3ccc(C(F)(F)F)cc3nc2C(=O)O)cc(OC)c1OC	34.4 µM (inactive)
CC1(C)CCc2cc3c(cc2O1)OC(C)(C)CC3=O	21.1 µM (inactive)
COC(=O)c1cc(C)n(CN(Cn2nc(C(=O)OC)cc2C)c2ccccc2)n1	36 µM (inactive)
CCOC(=O)C(=CNc1ccc(S(N)(=O)=O)cc1)C(=O)OCC	> 100 µM (inactive)
COC(=O)/C(C#N)=C1\CCC(OC)N1 (configuration not stated)	> 100 µM (inactive)
CCOC(=O)C(Cc1cc(OC)c(CC(C(=O)OCC)C(=O)OCC)cc1OC)C(=O)OCC	> 100 µM (inactive)
CCOC(=O)c1ccc(N[C@@H]2c3cc4c(cc3C(c3cc(OC)c(O)c(OC)c3)[C@H]3C(=O)OCC32)OCO4)cc1O (some centres not stated)	1.19 µM (inactive)
COc1ccc(C(=O)C(Br)C(Br)C(=O)O)cc1 (configuration not stated)	> 100 µM (inactive)
Cc1c2ccnc(-c3ccccc3)c2cc2c1[nH]c1ccccc12	0.614 µM (active)
O=c1n(/N=C/c2ccccc2)c(=O)n2n1C1C=CC2CC1	> 100 µM (inactive)
Cc1sc(N)c(S(=O)(=O)c2ccccc2)c1C	> 100 µM (inactive)
CCCc1ccc(/N=C\c2cc(OC)c(OC)c(OC)c2)cc1	> 100 µM (inactive)
COc1ccc2c(c1)CCc1cc(OC)ccc1/[N+]([O-])=[N+]\2[O-]	16.3 µM (inactive)
